# Experimental Details: soluble on expression in E. coli; label from the status in PepcDB or PDB records
Measurement Kind: soluble on expression in E. coli

[[record]]
ordered_residues = "EQMQSEFFYTDRKKIKWSLPSQPKVDIVELELLVARFIGEEKATKCFEKFHSMNQTKDNKKFNEAILFHAENTLARVLGSASAKLVTSLAISSRGMAFDQVAKLVEDNSTQQLEFSRTVLQSAIENVSEGISVIDSELKLVAWNKQYLDIFSYPEAFIYIGCPISQLIHFNLSQQGYFAKDIDLRVK"
reported_value = "not soluble"

[[record]]
ordered_residues = "MAGKVKWVTDIEKSVLINNFEKRGWIQVTDSEDWNFYWMSIQTIRTVFSVDTGYRLTDDQMVNHFPNHYELTRKDLMIKNIKRYRRELEKENSALAEKDDSGKYIYLDFVPVTFMLPADYNLFVEEFRKSPSSTWIMKPCGKAQGKGIFLINKLSQIKKWSRDSRTSTFVAANSGKEAYVISLYIDNPLLIGGKKFDLRLYVLVTTYRPLKCYMWVQESSE"
reported_value = "not soluble"

[[record]]
ordered_residues = "MPLEEGVLIDCTLGLGGHSKALLSQKPHLKLIGIDKDKFAQEIAKERLKAFEGRYNLLSGGFAKRFKEALETHNKEIKGVLVDLGVSSLQLDDDNRGFNFHSHTLDMRMDLESELNAQKVINSYPIVALEKIFRDYGEIKEYKKIAHKIAERRAKKPFKNAKDLSEFLSSFSKNKKIHPATLVFQAVRIEVNSELEELKEFLQCARNLKGAILCVISFHSLEDALVKNAFKDYAKNCICDPSSFKCACSNNHALGEILTKKPITPSPEEIKNNRRSRSAKMRVFQFKPLEHHHHHH"
reported_value = "not soluble"

